- System: DMS-114
- protocol.description: NCI tumour cell line growth inhibition, 48 h
The source made the active and inactive calls. Rule as the data show it: active = GI50 up to about 1.1 µM and inactive = higher.
endpoint.name: GI50

These solved cases illustrate the format of a correct answer.
[[record]]
compound = "COc1ccc(/N=C(/[N-]n2c(=O)c(C)nn(C)c2=S)N(c2ccc(OC)cc2)c2n[n+]3c(=O)c(C)nn(C)c3s2)cc1"
meas_value = "> 100 µM (inactive)"

[[record]]
compound = "CS(=O)(=O)N(CCC#N)c1ccc(/C=N/NC(=O)CC(=O)Nc2cccc(Cl)c2)cc1"
meas_value = "> 100 µM (inactive)"

[[record]]
compound = "Cc1ccc(NC(=O)C(=O)Cc2nc3ccccc3o2)c(C)c1"
meas_value = "> 100 µM (inactive)"

[[record]]
compound = "CCOc1ccc([Se][Se]c2ccc(OCC)cc2)cc1"
meas_value = "20.7 µM (inactive)"

[[record]]
compound = "NC(=O)NN=C(CS)CS"
meas_value = "30.5 µM (inactive)"

[[record]]
compound = "O=[PH](O)c1ccsc1"
meas_value = "> 100 µM (inactive)"

[[record]]
compound = "C[C@]12CCC3[C@@H](CC[C@@H]4c5nonc5CC[C@]34C)C1CC[C@@H]2O (stereo partly specified)"
meas_value = "29.2 µM (inactive)"

[[record]]
compound = "Nc1ccccc1C(=O)/C=C/c1ccccc1O"
meas_value = "29.8 µM (inactive)"

[[record]]
compound = "NCCN1C(=O)C2C3c4ccccc4C(c4ccccc43)C2C1=O (stereo unspecified)"
meas_value = "> 100 µM (inactive)"

[[record]]
compound = "Cc1cc(NS(=O)(=O)c2ccc(Nc3c4ccccc4nc4c(C(=O)N5CCN(CCO)CC5)cccc34)cc2)no1"
meas_value = "> 100 µM (inactive)"


**Query** Using the record for CN(C)CN(C)c1nc(N(C)C)nc(N(C)C)n1 , report its GI50.
**Result** 90.2 µM (inactive)

**Query** Using the record for Nc1ccccc1C(=O)NC(=O)Nc1ccc(Oc2ncc(Br)cn2)c(Cl)c1 , report its GI50.
**Result** < 0.01 µM (active)

**Query** Using the record for O=C(CC/C(CC(=O)c1ccc(Br)cc1)=N\O)Nc1ccc(Cl)c(Cl)c1 , report its GI50.
**Result** 27.9 µM (inactive)

**Query** Using the record for CCN(CC)CCNc1ccc2nnn3c4ccc([N+](=O)[O-])cc4c(=O)c1c23 , report its GI50.
**Result** 8.53 µM (inactive)

**Query** Using the record for O=Cc1cc2sc(C=O)cc2s1 , report its GI50.
**Result** > 100 µM (inactive)

**Query** Using the record for CCCCCCCC/C=C1\CCC(CN(C)C)C1=O (stereo unspecified) , report its GI50.
**Result** 4.01 µM (inactive)

* * *

- Tested on: COLO 205
- protocol.description: NCI tumour cell line growth inhibition, 48 h
The source made the active and inactive calls. Cut-off read from the data, not from the text of the source: active = GI50 up to about 1.1 µM and inactive = higher.
The categories you may choose from are y for active, n for inactive

**Query** Could you check what this test reported for O=c1[nH]cnc2c1nnn2C1C=C(CO)C(O)C1O (centres undefined) ?
**Result** n

**Query** Could you check what this test reported for C=C1C(=O)O[C@@H]2[C@H]1C[C@@H](O)[C@H](C)[C@@](O)(C(=O)/C=C/C)[C@H]2OC(=O)C(C)CC (some centres undefined) ?
**Result** n

**Query** Could you check what this test reported for CCCCCCCCCCCCCCCCc1c(C(=O)OC)[nH]c(=S)[nH]c1=O ?
**Result** n

* * *

- System: HCT-116
- protocol.description: NCI tumour cell line growth inhibition, 48 h
Calls of active or inactive are those of the source. Cut-off read from the data, not from the text of the source: active = GI50 up to about 1.1 µM and inactive = higher.
endpoint.name: GI50

These solved cases illustrate the format of a correct answer.
[[record]]
compound = "CC(C)(C)[Si](OC1CC(n2cnc3c(N)ncnc32)OC1CO)(c1ccccc1)c1ccccc1 (stereo not drawn)"
endpoint_name = "GI50"
meas_value = "17.2 µM (inactive)"

[[record]]
compound = "OC(c1ccccc1)(c1ccccc1)c1ccncc1"
endpoint_name = "GI50"
meas_value = "> 100 µM (inactive)"


Now, please, on to the next compound.
**Query** Using the record for CC1CN=C(Nc2cccc(C(F)(F)F)c2)S1 (stereo not drawn) , report its GI50.
**Result** 41.7 µM (inactive)

* * *

- Test system: HCT-116
- protocol.description: NCI tumour cell line growth inhibition, 48 h
The source made the active and inactive calls. Cut-off read from the data, not from the text of the source: active = GI50 up to about 1.1 µM and inactive = higher.
endpoint.name: GI50

[[record]]
compound = "CCCC(=O)c1c(NOC2OCC(OC(C)=O)C(OC(C)=O)C2OC(C)=O)nc(OC)n(C)c1=O (stereo unspecified)"
meas_value = "> 100 µM (inactive)"


**Query** Using the record for NC(=O)CCSC(CC(=O)c1ccc(Cl)cc1)c1ccc(Cl)cc1 (stereo unspecified) , report its GI50.
**Result** 14.7 µM (inactive)

**Query** Using the record for c1ccc2c(c1)CCc1[nH]c3c(c1-2)-c1ccccc1CC3 , report its GI50.
**Result** 96.8 µM (inactive)

* * *

- Test system: MDA-N
- protocol.description: NCI tumour cell line growth inhibition, 48 h
Activity calls are given as the source filed them. Cut-off read from the data, not from the text of the source: active = GI50 up to about 1.1 µM and inactive = higher.
The categories you may choose from are active, inactive

Sample answers from the record:
[[record]]
compound = "CN1CCCOC(c2ccc(Cl)cc2)O1 (centres undefined)"
group_label = "inactive"

[[record]]
compound = "CCCCCCCCCCCCCCCCOP(=O)(O)OP(=O)(O)OCC1OC(n2cnc3c(N)ncnc32)C(O)C1O (centres undefined)"
group_label = "inactive"

[[record]]
compound = "O=[N+]([O-])c1ccc(N/N=C(\\c2ccccc2)c2ccccn2)nc1"
group_label = "inactive"

[[record]]
compound = "CC(C)(C)c1ccc2c(c1)CNCCNCc1cc(C(C)(C)C)ccc1OCC1(CO2)COc2ccc(C(C)(C)C)cc2CNCCNCc2cc(C(C)(C)C)ccc2OC1"
group_label = "active"

[[record]]
compound = "O=C(NNCC(O)COc1ccccc1)c1ccccc1 (centres undefined)"
group_label = "inactive"


**Query** Could you check what this test reported for C[C@@H]1CCC2C(C)(C)C(/C=C\C=O)C3(C)OC213 (some centres undefined) ?
**Result** inactive

**Query** Could you check what this test reported for CC1(C)[C@H]2CC[C@]1(C)[C@H](OC(=O)NNC(=O)O[C@@H]1C[C@@H]3CC[C@@]1(C)C3(C)C)C2 ?
**Result** inactive

**Query** Could you check what this test reported for COc1cc2c(/C=C3/C(=O)N(C)c4ccccc43)c(Cl)[nH]c2cc1C ?
**Result** active

**Query** Could you check what this test reported for CCOC(=O)c1c[nH]c2c(Sc3ccccc3)nccc2c1=O ?
**Result** inactive

* * *

- Test system: IGROV-1
- protocol.description: NCI tumour cell line growth inhibition, 48 h
Active and inactive are the calls of the source. Cut-off read from the data, not from the text of the source: active = GI50 up to about 1.1 µM and inactive = higher.
The categories you may choose from are 1 (active), 0 (inactive)

Sample answers from the record:
[[record]]
molecule = "N#CCCN(CCC#N)CCN(CCN(CCC#N)CCC#N)CCN(CCC#N)CCC#N"
group_label = 0

[[record]]
molecule = "O=C1NCCCc2nonc21"
group_label = 0

[[record]]
molecule = "COc1cc([C@@H]2c3cc4c(cc3[C@@H](NCc3ccccc3F)C3COC(=O)[C@@H]32)OCO4)cc(OC)c1O (some centres not stated)"
group_label = 1

[[record]]
molecule = "O=C1Nc2ccccc2C1Cc1ccccc1 (configuration not stated)"
group_label = 0

[[record]]
molecule = "O=C1c2ccccc2CC12Cc1ccc3c(c1C2=O)CCCC3 (configuration not stated)"
group_label = 0


**Query** Could you check what this test reported for COC1C=C(Nc2cccc(Cl)c2)C(=O)C1 (configuration not stated) ?
**Result** 0

**Query** Could you check what this test reported for Cn1c(=O)[nH]c2[nH]c3ccccc3c2c1=O ?
**Result** 0

**Query** Could you check what this test reported for COc1ccc([S+]([O-])Cc2cc(OC)c(OC)c(OC)c2)cc1 (configuration not stated) ?
**Result** 0

**Query** Could you check what this test reported for C[C@@H]1C[C@@H]2C(=O)N(c3ccccc3)C(=O)[C@@H]2c2[nH]c3ccc(Br)cc3c21 ?
**Result** 0

* * *

Parameter GI50: see the listing below.
- System: A549
- protocol.description: NCI tumour cell line growth inhibition, 48 h
The source made the active and inactive calls. Cut-off read from the data, not from the text of the source: active = GI50 up to about 1.1 µM and inactive = higher.

[[record]]
molecule = "[N-]=[N+]=Nc1cc(=O)[nH]c2ccccc12"
endpoint_name = "GI50"
meas_value = "> 100 µM (inactive)"

[[record]]
molecule = "N#Cc1ccc(/C=N\\N2C(=O)c3ccccc3C2=O)cc1"
endpoint_name = "GI50"
meas_value = "> 100 µM (inactive)"

[[record]]
molecule = "Cc1ccc(S(N)(=O)=O)cc1 [P-TOLUENESULFONAMIDE]"
endpoint_name = "GI50"
meas_value = "> 1000 µM (inactive)"


**Query** Using the record for Cc1nc(C(N)=S)sc1C(=O)CC(=O)C(=O)Nc1ccc(Br)cc1 , report its GI50.
**Result** > 100 µM (inactive)
